From: PubChem BioAssay (NCATS)

- PROCEDURE DETAILS: qHTS of pediatric cancer cell lines to identify multiple opportunities for drug repurposing: Primary screen for DAOY cells (AID 1347090); also: nearly all actives have a fitted effect of over 55% in size
- CONDITIONS USED: DAOY medulloblastoma viability, CellTiter-Glo luminescence, 48 h; series mostly up to 46 µM
- Description: Drug repurposing or repositioning has been offered as a strategy for drug development in oncology programs. […] [1] Shen, M et al. Quantitative high-throughput phenotypic screening of pediatric cancer cell lines identifies multiple opportunities for drug repurposing. […] Cells were assayed in growth media at a density of 500-1,000 cells/well. […] After a 15 min incubation at room temperature, samples were analyzed for luminescence intensity using a ViewLux High-throughput CCD imager equipped with clear filters.
Records with an inconclusive call do not appear. Calls of active or inactive are those of the source. Calls follow the shape of the dose curve; as a rule, active = well fitted cell-killing curve with a large enough effect; inconclusive = small, poorly fitted or top-dose-only effect; inactive = flat fitted curve, though single readings scatter.
Outcome codes: true (1) (active), false (0) (inactive)

>>> discrete_label("CNC[C@H](O)c1cccc(O)c1")
"false (0)"
>>> discrete_label("O=C1CCc2cc(OCCCCc3nnnn3C3CCCCC3)ccc2N1")
"false (0)"
>>> discrete_label("CC[C@@H](C)[C@H](NC(=O)[C@H](CC1CCCCC1)NC(=O)c1ccno1)C(=O)N1CCC2(CCc3ccccc32)CC1")
"false (0)"
>>> discrete_label("O=c1n(CCCN2CCN(c3cccc(Cl)c3)CC2)nc2ccccn12")
"false (0)"
>>> discrete_label("Cc1[nH]c(=O)c(C#N)cc1-c1ccncc1")
"false (0)"
>>> discrete_label("CS(=O)(=O)Oc1ccc2c(NC(N)=O)c(C(=O)c3ccc(Cl)cc3Cl)oc2c1")
"true (1)"
>>> discrete_label("c1ccc([C@H]2CN3CCSC3=N2)cc1")
"false (0)"
>>> discrete_label("CCN(c1ccccc1)c1cc(NC)[n+](C)c(C)n1")
"false (0)"
>>> discrete_label("OCCn1cc(-c2cnc3nnn(Cc4ccc5ncccc5c4)c3n2)cn1")
"false (0)"
>>> discrete_label("COc1ccc([C@@H]2CC(=O)c3c(O)cc(O[C@@H]4O[C@H](CO[C@@H]5O[C@@H](C)[C@H](O)[C@@H](O)[C@@H]5O)[C@@H](O)[C@H](O)[C@@H]4O)cc3O2)cc1O")
"false (0)"
>>> discrete_label("Cc1cn[nH]c1")
"false (0)"
>>> discrete_label("COc1ccc(C2=N[C@H](c3ccc(Cl)cc3)[C@H](c3ccc(Cl)cc3)N2C(=O)N2CCNC(=O)C2)c(OC(C)C)c1")
"true (1)"
>>> discrete_label("CNCc1ccc(-c2[nH]c3cc(F)cc4c3c2CCNC4=O)cc1")
"false (0)"
>>> discrete_label("CCC(=O)N[C@H]1CC[C@H](C(=O)N(C)c2ccc(-c3nc4ccccc4o3)cc2)C1")
"true (1)"
>>> discrete_label("NC(=O)c1ccc(I)c([N+](=O)[O-])c1")
"false (0)"
>>> discrete_label("CNC(=O)c1ccc(C)c(-n2c(C)cc(OCc3ccc(F)cc3F)c(Br)c2=O)c1")
"false (0)"
>>> discrete_label("c1ccc(-c2nn3c(c2-c2ccnc4cc(OCCN5CCOCC5)ccc24)CCC3)nc1")
"false (0)"
>>> discrete_label("O=C(C1CC1)N1CC[C@@H](Cn2c(-c3ccc(-c4ccc5occc5c4)cc3)nc3cnccc32)C1")
"false (0)"
>>> discrete_label("O=C(C=Cc1ccc(/C=C/C(=O)Nc2ccc(C3=NCCN3)cc2)cc1)Nc1ccc(C2=NCCN2)cc1")
"false (0)"
>>> discrete_label("Cc1n[nH]c(C)c1Cc1sc2c(c1C(=O)N1C[C@H](O)CO1)c(=O)n(C)c(=O)n2CC(C)C")
"false (0)"
